- System: SK-MEL-5 melanoma
- experimental-protocol: NCI-60 one-dose screen, 48 h (100 = growth as untreated, 0 = no growth, -100 = all killed)
- condition-details: 10 µM unless noted
This is part of a sample that, as a whole, favours compounds with a hit. Of some 83,000 tested, about 20% had one in any assay.
Under this convention, Yes denotes growth strictly below 90% and No denotes growth at or above 90%.

>  <sample-smiles>
COc1ccc(/C(N)=N/C(N)=N/c2nc3ccccc3s2)cc1

>  <label>
Yes

$$$$
>  <sample-smiles>
NS(=O)(=O)c1ccc(Nc2nc(Nc3ccccc3)nc3nnc(SCC(=O)NC4CCCCC4)n23)cc1

>  <label>
No

$$$$
>  <sample-smiles>
O=C(Cn1cc[n+](CC(=O)c2ccc(-c3ccccc3)cc2)c1)Nc1cccc2cccnc12

>  <label>
Yes

$$$$
>  <sample-smiles>
O=C(O)c1cn(C2CC2)c2cc(N3CCN(C(=O)CN4C(=O)CSC4=O)CC3)c(F)cc2c1=O

>  <label>
No

$$$$
>  <sample-smiles>
CS(=O)(=O)c1ncc(-c2ccccc2)cn1

>  <label>
No

$$$$
